Reported apparent KD of MS2 coat protein values are given for each entry in this list.
- Test system: MS2 coat protein
- assay.info: apparent KD of MS2 coat protein; designed switch direction (-1 OFF switch, 1 ON switch): -1; higher = weaker reporter binding
- experimental.parameters: input ligand: FMN 200 uM
Answer format: numeric, nM implied, no suffix.

Observe how each entry below is paired with its result.
[[record]]
polymer_sequence = "CUGUACUGAGGAUAUACAUGAGGAUCACCCAUGUGAUUUGGUGCACGCGUACGUGUACGUAGAAGGCAGUACAG [Mat - Exclusion 3 - Eli Mod - D39] (Eterna round: R97, puzzle: Exclusion 3)"
test_target = "MS2 coat protein"
test_value = 317

[[record]]
polymer_sequence = "AAGAAACAUGAGGAUCACCCAUGUGAGGAUAUGCAAGAAAGAAAGAAAGAAAGAAGAAGCAGAAGGCACAAAGG [Gaius Turranius] (Eterna round: R96, puzzle: Exclusion 1)"
test_target = "MS2 coat protein"
test_value = 84.7

[[record]]
polymer_sequence = "CCGCGCCGGCGAGGAUAUUAGAAAGGAAGUGUAUAAGAAGGCGCCAUGCGCGAACAUGAGGAUCACCCAUGUGCCGCUCGUGUA [PowerStrip EXNG 1.24] (Eterna round: R96, puzzle: Exclusion NG 1)"
test_target = "MS2 coat protein"
test_value = 39.7


Query: # query: apparent KD of MS2 coat protein | item AAACCCUGAGGAUAUGCAUAACAACAAAGCCUCACGUGCCAACAUGAGGAUCACCCAUGUAGAAGGCAGGCCAA [Mod R3 Insanara 15 - Jieux - Exclusion 2] (Eterna round: R97, puzzle: Exclusion 2) | system: MS2 coat protein
Response: 20.7

Query: Follow-up item: GCGCCAUCGUGAGAUGGCGUAACUACAUGAGGAUCACCCAUGUAGGAUAUCGAUUGCUUUGCAGUCGAGAAGGGCAAGGGAUUU [JL ENG3 3.88] (Eterna round: R96, puzzle: Exclusion NG 3)
Response: 25.8

Query: Follow-up item: AAAAGGCAGGGAGGAUAUGCUUACCUGGGUCGUCUUCAGACAUGAGGAUCACCCAUGUAGUCGACGCAGAAGGCCCUCAAAGCC [Mat - Exclusion NG 2 - Mod of JL - D60] (Eterna round: R96, puzzle: Exclusion NG 2)
Response: 82.6

Source of measurements: the supplement of paper PMC9170038
